Just for reference, patent US20240116985A1 is where these values come from.

biological target: full-length beta-Catenin (Uniprot ID P35222) (Homo sapiens, UniProt P35222); construct: 10 nM full-length beta-Catenin (Uniprot ID P35222); experiment: Fluorescence polarization IC50 (beta-catenin / 5FAM-TCF4 10-53 competition); format: binding; settings: Table E2-1; read-out: beta-Catenin FP IC50
Sequence (P35222 whole entry): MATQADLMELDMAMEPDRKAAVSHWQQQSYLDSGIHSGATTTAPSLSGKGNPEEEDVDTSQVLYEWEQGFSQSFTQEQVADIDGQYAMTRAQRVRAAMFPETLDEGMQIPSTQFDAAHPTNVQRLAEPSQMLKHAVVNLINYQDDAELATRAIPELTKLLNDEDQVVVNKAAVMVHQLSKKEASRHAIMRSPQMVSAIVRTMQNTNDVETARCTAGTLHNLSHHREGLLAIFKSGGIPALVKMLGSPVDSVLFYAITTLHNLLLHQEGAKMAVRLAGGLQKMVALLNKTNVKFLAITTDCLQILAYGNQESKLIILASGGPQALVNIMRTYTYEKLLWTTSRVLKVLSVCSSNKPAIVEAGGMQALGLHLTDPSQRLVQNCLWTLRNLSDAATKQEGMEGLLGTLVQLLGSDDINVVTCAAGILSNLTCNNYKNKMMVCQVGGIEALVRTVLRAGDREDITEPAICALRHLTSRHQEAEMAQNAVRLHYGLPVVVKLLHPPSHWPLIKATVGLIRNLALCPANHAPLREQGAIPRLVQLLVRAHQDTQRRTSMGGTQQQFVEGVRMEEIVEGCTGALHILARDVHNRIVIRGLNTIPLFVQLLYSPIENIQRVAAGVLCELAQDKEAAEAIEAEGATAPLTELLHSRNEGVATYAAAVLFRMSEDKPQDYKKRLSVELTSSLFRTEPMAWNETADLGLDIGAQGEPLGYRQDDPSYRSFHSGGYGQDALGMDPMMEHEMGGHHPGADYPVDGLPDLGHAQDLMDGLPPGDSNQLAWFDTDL
The reader will find reported IC50 values listed item by item below.
The answer is to be given in µM; state only the numeric part.

Problem: Request the reported IC50 associated with CC(=O)N1CCC[C@]12CC=CCCCC1(CCCC=CCCCCCC[C@@](C)(C(=O)N[C@@H](Cc3ccccc3)C(=O)N[C@@H](Cc3c[nH]c4ccccc34)C(=O)N[C@@H](CCC(N)=O)C(N)=O)NC(=O)[C@H](C(C)C)NC(=O)[C@H](Cc3ccco3)NC(=O)[C@H](C)NC(=O)[C@H](C)NC(=O)[C@H](CC(=O)O)NC(=O)[C@H](CC(=O)O)NC1=O)NC(=O)[C@H](C)NC(=O)[C@H](CC(=O)O)NC2=O (stereo partly drawn) [I-327]
Solution: 4.72

Problem: Note, next up: CC(=O)N1CCC[C@]12CC=CCCCC1(CCCC=CCCCCCC[C@@](C)(C(=O)N[C@@H](Cc3ccccc3)C(=O)N[C@@H](Cc3c[nH]c4ccccc34)C(=O)N[C@@H](CCC(N)=O)C(N)=O)NC(=O)[C@H](C(C)C)NC(=O)[C@H](Cc3ccccc3)NC(=O)[C@H](C)NC(=O)[C@H](C)NC(=O)[C@H](Cc3c[nH]cn3)NC(=O)[C@H](CC(=O)O)NC1=O)NC(=O)[C@H](C)NC(=O)[C@H](CC(=O)O)NC2=O (stereo partly drawn)
Solution: 3.98

Problem: Note, next up: CC(=O)N1CCC[C@]12CC=CCCCC1(CCCC=CCCCCCC[C@@](C)(C(=O)N[C@@H](Cc3ccccc3)C(=O)N[C@@H](Cc3c[nH]c4ccccc34)C(=O)N[C@@H](Cc3c[nH]cn3)C(N)=O)NC(=O)[C@H](CCC(N)=O)NC(=O)[C@H](Cc3ccccc3)NC(=O)[C@H](C)NC(=O)[C@H](C)NC(=O)[C@H](CCC(=O)O)NC(=O)[C@H](CC(=O)O)NC1=O)NC(=O)[C@H](C)NC(=O)[C@H](CC(=O)O)NC2=O (stereo partly drawn)
Solution: 1.63
